# Test Details: soluble fraction after stress (log2 fold change); higher = more stays soluble; pooled small domains, quantitative proteomics;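 note: 20 min heating vs room temperature control held 20 min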
# Condition Details: stress: 75 degC
Consider the following sequences; for each one, report its soluble fraction (log2).
Answer using only a numeral; do not append any unit.

Any idea what soluble fraction (log2) was measured for `HMSLEEIPLEERLGPGGLDPVAVYDSLPREMRDAFDSGSVSALREFVNALPAEDAARHMKAMVDSGLWVPT` ?
0.148

Any idea what soluble fraction (log2) was measured for `HMENWMPNLVNQDKRLAINTLRELGFTEEAGNLVIREETSEDVTKDYVISTDPVAETDLADVEKVTLVVSS` ?
0.116

Any idea what soluble fraction (log2) was measured for `HMSDTFENILQRLIKATGRKNASEMANALGLSPQSVYSAKTKGKIPPAWIFAAAERFNASADWIYFGY` ?
-1.5

Any idea what soluble fraction (log2) was measured for `HMPGKVSDAGATAKDNRLFLEAVFWRVRTGSPWRDLPPAFGHWNSQFRRFRRWAKAGVFESLFNA` ?
0.182

Any idea what soluble fraction (log2) was measured for `HMSISSSEAARSAVASSGGTVLGVSKASHGGYKAWAVRIQRADGSVVTGYVDRASGTVYDWVVNQAA` ?
-0.663

Any idea what soluble fraction (log2) was measured for `HMVISNDEFEDYLNRATEQLVSELSSGKNPRDAVHDLALTFADQHNKSYDAYQRMADSLEARMHTL` ?
0.0871

Any idea what soluble fraction (log2) was measured for `HMGFKLQRYTTFVVERLKKYQDTPAAQMHDLLKEHYPDFPAVSPKTVYNYVMKIRQEHGLPAV` ?
-4.26

Any idea what soluble fraction (log2) was measured for `HMSNVIYFNYNDYKFLFMGDAGVDKETDILEKYTLSNIDFLKVGHHGSDTSSNKGFIDSIQPKYSLIS` ?
-1.53

Any idea what soluble fraction (log2) was measured for `HMRVKLVKKSILASGGENIRVDKFLSNHILTMTRTQIKKLFLDGLVQVNKSFVKPGSILKGNEIITFSIPE` ?
-1.68

Any idea what soluble fraction (log2) was measured for `HMPDITAAVARTLQALRADRGWSLDQLAARSGVSKGVLVALEQGRSNPNLATLARIGDAFGVPVTLLVDL` ?
-1.45

====

# Test Details: soluble fraction after stress (log2 fold change); higher = more stays soluble; pooled small domains, quantitative proteomics
# Condition Details: stress: 75 degC
Observation Type: soluble fraction (log2)
Answer using only a numeral; do not append any unit.

Any idea what soluble fraction (log2) was measured for `HMNQSKYQTIADELKSKILSGEYPENTTIPPELQLQKDYQVSRHTIRQAIALLANEGFLRKEKGSGTYVDV` ?
-0.147

Any idea what soluble fraction (log2) was measured for `HMHLTNIPKGFTPSFDTKQWIVEEFGERYNYDNELKIFINHYRASGTTKSDWQYAFRSWLLRAKKFT` ?
-2.83

Any idea what soluble fraction (log2) was measured for `HMERRDEINSVVSRYVSAITEGKYDLAEVDETGKLRVQTEGREVLPEALSRGTLEQFYFAFRMAVGSI` ?
0.04

Any idea what soluble fraction (log2) was measured for `HMNQRQKQLLSILEQQGDWMKGKALATLLAVSDRTIRSDIEKINREVEGSILSHPHKGYLLSVENRQIAET` ?
0.107

Any idea what soluble fraction (log2) was measured for `HMVSRKIENPYWANKEKQHIIAEFFYPDTNKRVTASIMNDGSNRDYEEILRGYSIEQIDANTNRRLEER` ?
0.566

Any idea what soluble fraction (log2) was measured for `HMNIDVAAEKQQLGPNADQIVKGTVTWMQGLVAKGIWSETDFEEGKIFTATADGINAINKIRRYYGEQT` ?
0.0956

Any idea what soluble fraction (log2) was measured for `HMDTPMQEAVLQRLRDKVAQAAAGSKLPTVRQLIADYGVGQHVIQAALEKLRTEGLITSHVGKGTFVG` ?
0.325

Any idea what soluble fraction (log2) was measured for `HMEGDAFAFTGDIQKDLLSITAVHPMRREAVDALIAKAGASWAIVEKLLAHGELTEAKHDGHLFYLRKF` ?
-1.19

Any idea what soluble fraction (log2) was measured for `HMTKSTLQRQKIIADLIESGNISSQNQLKGLLKKNSLLITQATLSRDLSELGAIKKRQKDGLLVYVLPK` ?
-0.365

Any idea what soluble fraction (log2) was measured for `HMKDANIQIGKRLREARLNMNLEKSEIADVLGVTVEHYRKLEAGVMGISVDKVLTLYHKYGIDPTYLITG` ?
-3.36

Any idea what soluble fraction (log2) was measured for `HMITIDADTGKRVYTRKEVADLVGASTQSIRLWEDAGAIPASVRDEGGYRYWYEEDLEAIKAYAS` ?
-0.203

Any idea what soluble fraction (log2) was measured for `HMPLTEMAVRKHLSAELAQKGYTIDPRALEILLQRTNTNLTAIANELPKLLLVAEDKQITVNEVSAM` ?
-0.319
